- assayed-target: von Hippel-Lindau disease tumor suppressor/Serine/threonine-protein kinase TBK1 (Homo sapiens, UniProt Q9UHD2+P40337)
- assay-comment: Induction of VHL-mediated TBK1 degradation in human Panc02.13 cells after 16 hrs by Western blot method relative to control
- Type: cell-based
- Sequence (P40337 whole entry, looked up, one chain of several): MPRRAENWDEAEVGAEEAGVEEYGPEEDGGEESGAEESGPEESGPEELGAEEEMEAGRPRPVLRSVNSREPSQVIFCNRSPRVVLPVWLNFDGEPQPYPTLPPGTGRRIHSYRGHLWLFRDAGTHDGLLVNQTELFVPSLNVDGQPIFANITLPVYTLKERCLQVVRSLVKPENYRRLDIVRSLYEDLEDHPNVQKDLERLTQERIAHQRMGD
value-type: Emax (%)
Give the number; % is assumed, so skip it.

-- ask Input CC[C@H](NC(=O)COCCCOCCCCOCCCOc1ccc(Nc2ncc(Br)c(NCCCN(C)C(=O)C3CCC3)n2)cc1)C(=O)N1C[C@H](O)C[C@H]1C(=O)NCc1ccc(-c2scnc2C)cc1 , output reported Emax.
-- reply 71

-- ask Return Emax (reported value) for this compound: C=Cc1cnc(Nc2ccc(OCCCOCCCCOCCCOCC(=O)N[C@H](C(=O)N3C[C@H](O)C[C@H]3C(=O)NCc3ccc(-c4scnc4C)cc3)C(C)(C)C)cc2)nc1NCCCN(C)C(=O)C1CCC1
-- reply 96

-- ask Give the measured Emax for Cc1ncsc1-c1ccc(CNC(=O)[C@@H]2C[C@@H](O)CN2C(=O)CNC(=O)COCCCOCCCCOCCCOc2ccc(Nc3ncc(Br)c(NCCCN(C)C(=O)C4CCC4)n3)cc2)cc1
-- reply 0

-- ask Return Emax (reported value) for this compound: Cc1ncsc1-c1ccc(CNC(=O)[C@@H]2C[C@@H](O)CN2C(=O)[C@@H](NC(=O)COCCCOCCCCOCCCOc2ccc(Nc3ncc(I)c(NCCCN(C)C(=O)C4CCC4)n3)cc2)C(C)(C)C)cc1
-- reply 96

-- ask Look up Emax of Cc1ncsc1-c1ccc(CNC(=O)[C@@H]2C[C@@H](O)CN2C(=O)[C@@H](NC(=O)COCCCOCCCCOCCCOc2ccc(Nc3ncc(C(F)(F)F)c(NCCCN(C)C(=O)C4CCC4)n3)cc2)C(C)(C)C)cc1 and report it.
-- reply 96

###

- assayed-target: von Hippel-Lindau disease tumor suppressor/Serine/threonine-protein kinase TBK1 (Homo sapiens, UniProt Q9UHD2+P40337)
- assay-comment: Induction of VHL-mediated TBK1 degradation in human Panc02.13 cells after 16 hrs by Western blot method
- Format: cell-based
- Sequence (P40337 whole entry, one chain of several): as the sequence (P40337 whole entry, looked up, one chain of several) above
Criterion: DC50 strictly under 90 nM. Met: TRUE. Not met: FALSE.

-- ask Answer whether the molecule Cc1ncsc1-c1ccc(CNC(=O)[C@@H]2C[C@@H](O)CN2C(=O)[C@@H](NC(=O)COCCCOCCCCOCCCOc2ccc(Nc3ncc(Cl)c(NCCCN(C)C(=O)C4CCC4)n3)cc2)C(C)(C)C)cc1 has DC50 strictly less than 90 nM
-- reply TRUE

-- ask Take the molecule Cc1ncsc1-c1ccc(CNC(=O)[C@@H]2C[C@@H](O)CN2C(=O)[C@@H](NC(=O)COCCOCCOCCOCCOc2ccc(Nc3ncc(Br)c(NCCCN(C)C(=O)C4CCC4)n3)cc2)C(C)(C)C)cc1 and say whether its DC50 is less than 90 nM.
-- reply FALSE

-- ask Please determine if Cc1ncsc1-c1ccc(CNC(=O)[C@@H]2C[C@@H](O)CN2C(=O)[C@@H](NC(=O)COCCCOCCCCOCCCOc2ccc(Nc3ncc(I)c(NCCCN(C)C(=O)C4CCC4)n3)cc2)C(C)(C)C)cc1 is below 90 nM in terms of DC50.
-- reply TRUE

-- ask Does the reported DC50 of Cc1ncsc1-c1ccc(CNC(=O)[C@@H]2C[C@@H](O)CN2C(=O)[C@@H](NC(=O)COCCOCCCCOCCCCOCCOCCOc2ccc(Nc3ncc(Br)c(NCCCN(C)C(=O)C4CCC4)n3)cc2)C(C)(C)C)cc1 stay below 90 nM?
-- reply TRUE

-- ask Determine if Cc1ncsc1-c1ccc(CNC(=O)[C@@H]2C[C@@H](O)CN2C(=O)[C@@H](NC(=O)COCCCOCCCOc2ccc(Nc3ncc(Br)c(NCCCN(C)C(=O)C4CCC4)n3)cc2)C(C)(C)C)cc1 shows DC50 strictly lower than 90 nM.
-- reply FALSE

-- ask Could you please tell me whether DC50 recorded for Cc1ncsc1-c1ccc(CNC(=O)[C@@H]2C[C@@H](O)CN2C(=O)[C@@H](NC(=O)COCCCCCOCCCCOCCCCOCCCCOCCCCCOc2ccc(Nc3ncc(Br)c(NCCCN(C)C(=O)C4CCC4)n3)cc2)C(C)(C)C)cc1 is less than 90 nM?
-- reply FALSE

-- ask Please state whether DC50 is below 90 nM for Cc1ncsc1-c1ccc(CNC(=O)[C@@H]2C[C@@H](O)CN2C(=O)[C@@H](NC(=O)CCCCCOCCOc2ccc(Nc3ncc(Br)c(NCCCN(C)C(=O)C4CCC4)n3)cc2)C(C)(C)C)cc1
-- reply FALSE

-- ask Consider Cc1ncsc1-c1ccc(CNC(=O)[C@@H]2C[C@@H](O)CN2C(=O)[C@H](C)NC(=O)COCCCOCCCCOCCCOc2ccc(Nc3ncc(Br)c(NCCCN(C)C(=O)C4CCC4)n3)cc2)cc1 . Does its DC50 lie strictly below 90 nM?
-- reply FALSE

###

- assayed-target: von Hippel-Lindau disease tumor suppressor/Serine/threonine-protein kinase TBK1 (Homo sapiens, UniProt Q9UHD2+P40337)
- assay-comment: Induction of VHL-mediated TBK1 degradation in human Panc02.13 cells after 16 hrs by Western blot method
- Assay type: cell-based
Field: log10 of DC50. Provide a value for each of the compounds that follow.
Remember, log10 of DC50, in nM.

-- ask Tell me its log10 of DC50 given C=Cc1cnc(Nc2ccc(OCCCOCCCCOCCCOCC(=O)N[C@H](C(=O)N3C[C@H](O)C[C@H]3C(=O)NCc3ccc(-c4scnc4C)cc3)C(C)(C)C)cc2)nc1NCCCN(C)C(=O)C1CCC1 as the entry.
-- reply 1.68

-- ask Output measured log10 of DC50 for this item: CCc1cnc(Nc2ccc(OCCCOCCCCOCCCOCC(=O)N[C@H](C(=O)N3C[C@H](O)C[C@H]3C(=O)NCc3ccc(-c4scnc4C)cc3)C(C)(C)C)cc2)nc1NCCCN(C)C(=O)C1CCC1
-- reply 2.08

-- ask Fill in reported log10 of DC50 for this entry: Cc1ncsc1-c1ccc(CNC(=O)[C@@H]2C[C@@H](O)CN2C(=O)[C@@H](NC(=O)COCCOCCOCCOCCOCCOCCOc2ccc(Nc3ncc(Br)c(NCCCN(C)C(=O)C4CCC4)n3)cc2)C(C)(C)C)cc1
-- reply 1.53

-- ask Return reported log10 of DC50. Input compound: Cc1ncsc1-c1ccc(CNC(=O)[C@@H]2C[C@@H](O)CN2C(=O)[C@@H](NC(=O)COCCCOCCCCOCCCOc2ccc(Nc3ncc(C4CCC4)c(NCCCN(C)C(=O)C4CCC4)n3)cc2)C(C)(C)C)cc1
-- reply 2.74

-- ask Specify reported log10 of DC50 for the compound shown: Cc1ncsc1-c1ccc(CNC(=O)[C@@H]2C[C@@H](O)CN2C(=O)[C@@H](NC(=O)CCOCCCOCCCOCCCOCCCOc2ccc(Nc3ncc(Br)c(NCCCN(C)C(=O)C4CCC4)n3)cc2)C(C)(C)C)cc1
-- reply 1.40

-- ask Note log10 of DC50 for the compound shown: Cc1ncsc1-c1ccc(CNC(=O)[C@@H]2C[C@@H](O)CN2C(=O)[C@@H](NC(=O)COCCCOCCCCOCCCOc2ccc(Nc3ncc(Br)c(NCCCN(C)C(=O)C4CCC4)n3)cc2)C(C)C)cc1
-- reply 1.64

-- ask Read the entry Cc1ncsc1-c1ccc(CNC(=O)[C@@H]2C[C@@H](O)CN2C(=O)[C@@H](NC(=O)COCCOCCOCCOCCOCCOc2ccc(Nc3ncc(Br)c(NCCCN(C)C(=O)C4CCC4)n3)cc2)C(C)(C)C)cc1 and write its reported log10 of DC50.
-- reply 1.46

-- ask Provide log10 of DC50 value for the following compound: Cc1ncsc1-c1ccc(CNC(=O)[C@@H]2C[C@@H](O)CN2C(=O)[C@@H](NC(=O)COCCCOCCCCCOc2ccc(Nc3ncc(Br)c(NCCCN(C)C(=O)C4CCC4)n3)cc2)C(C)(C)C)cc1
-- reply 1.94

###

- assayed-target: Serine/threonine-protein kinase TBK1 (Homo sapiens, UniProt Q9UHD2)
- Sequence (Q9UHD2 whole entry): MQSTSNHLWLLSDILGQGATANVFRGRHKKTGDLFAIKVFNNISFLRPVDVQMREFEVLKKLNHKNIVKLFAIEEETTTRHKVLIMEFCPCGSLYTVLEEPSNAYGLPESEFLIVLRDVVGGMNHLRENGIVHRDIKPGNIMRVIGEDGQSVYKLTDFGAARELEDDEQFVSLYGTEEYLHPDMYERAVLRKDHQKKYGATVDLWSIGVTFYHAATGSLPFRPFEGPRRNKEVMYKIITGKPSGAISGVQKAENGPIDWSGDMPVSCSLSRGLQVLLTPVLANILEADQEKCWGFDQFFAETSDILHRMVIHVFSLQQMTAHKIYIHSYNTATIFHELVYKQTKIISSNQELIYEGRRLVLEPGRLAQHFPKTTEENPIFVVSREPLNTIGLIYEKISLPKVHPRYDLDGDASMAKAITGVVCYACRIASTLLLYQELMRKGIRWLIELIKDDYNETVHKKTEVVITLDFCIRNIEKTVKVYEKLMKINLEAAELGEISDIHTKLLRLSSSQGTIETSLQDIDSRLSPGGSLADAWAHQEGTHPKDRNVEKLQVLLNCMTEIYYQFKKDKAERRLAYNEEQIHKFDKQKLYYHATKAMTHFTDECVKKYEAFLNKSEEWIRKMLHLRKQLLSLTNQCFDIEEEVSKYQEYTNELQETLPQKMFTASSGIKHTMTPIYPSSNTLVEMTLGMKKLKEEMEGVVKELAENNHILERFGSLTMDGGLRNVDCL
Binarize Kd at 10 nM; below is 1.0, at or above is 0.0.

-- ask Please check: Kd for Cc1ncsc1-c1ccc(CNC(=O)[C@@H]2C[C@@H](O)CN2C(=O)[C@@H](NC(=O)COCCCOCCCCOCCCOc2ccc(Nc3nccc(NCCCN(C)C(=O)C4CCC4)n3)cc2)C(C)(C)C)cc1 , strictly under 10 nM or not?
-- reply 0.0

-- ask Below 10 nM on Kd? Entry Cc1cnc(Nc2ccc(OCCCOCCCCOCCCOCC(=O)N[C@H](C(=O)N3C[C@H](O)C[C@H]3C(=O)NCc3ccc(-c4scnc4C)cc3)C(C)(C)C)cc2)nc1NCCCN(C)C(=O)C1CCC1
-- reply 0.0

-- ask Problem: For the molecule Cc1ncsc1-c1ccc(CNC(=O)[C@@H]2C[C@@H](O)CN2C(=O)[C@@H](NC(=O)COCCCOCCCCOCCCOc2ccc(Nc3ncc(I)c(NCCCN(C)C(=O)C4CCC4)n3)cc2)C(C)(C)C)cc1 , is Kd under 10 nM?
-- reply 1.0

-- ask Below 10 nM on Kd? Entry Cc1ncsc1-c1ccc(CNC(=O)[C@@H]2C[C@@H](O)CN2C(=O)[C@@H](NC(=O)COCCCOCCCCOCCCOc2ccc(Nc3ncc(C4CCC4)c(NCCCN(C)C(=O)C4CCC4)n3)cc2)C(C)(C)C)cc1
-- reply 0.0

-- ask For this molecule, is Kd lower than 10 nM? C=Cc1cnc(Nc2ccc(OCCCOCCCCOCCCOCC(=O)N[C@H](C(=O)N3C[C@H](O)C[C@H]3C(=O)NCc3ccc(-c4scnc4C)cc3)C(C)(C)C)cc2)nc1NCCCN(C)C(=O)C1CCC1
-- reply 0.0

-- ask I wonder whether Cc1ncsc1-c1ccc(CNC(=O)[C@@H]2C[C@H](O)CN2C(=O)[C@@H](NC(=O)COCCCOCCCCOCCCOc2ccc(Nc3ncc(Br)c(NCCCN(C)C(=O)C4CCC4)n3)cc2)C(C)(C)C)cc1 has Kd below 10 nM. Can you tell?
-- reply 1.0

-- ask For this molecule, is Kd lower than 10 nM? Cc1ncsc1-c1ccc(CNC(=O)[C@@H]2C[C@@H](O)CN2C(=O)[C@@H](NC(=O)COCCCOCCCCOCCCOc2ccc(Nc3ncc(C(F)(F)F)c(NCCCN(C)C(=O)C4CCC4)n3)cc2)C(C)(C)C)cc1
-- reply 0.0
